Reference source for all entries: BindingDB's records for doi:10.7270/Q2QN656Q

# TARGET DESC: Serine/threonine-protein phosphatase PP1-alpha catalytic subunit (Homo sapiens, UniProt P62136)
# Sequence (P62136 whole entry): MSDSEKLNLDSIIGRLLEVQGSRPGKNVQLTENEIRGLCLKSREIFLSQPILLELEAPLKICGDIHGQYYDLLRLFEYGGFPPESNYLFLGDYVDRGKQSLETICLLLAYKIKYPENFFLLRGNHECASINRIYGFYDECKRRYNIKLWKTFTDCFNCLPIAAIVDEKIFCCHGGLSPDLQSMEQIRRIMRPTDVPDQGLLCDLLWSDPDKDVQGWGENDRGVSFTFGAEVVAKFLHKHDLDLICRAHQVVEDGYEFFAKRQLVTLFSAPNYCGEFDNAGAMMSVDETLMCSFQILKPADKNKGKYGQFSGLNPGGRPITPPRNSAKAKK
# METHOD: PP1 phosphatase inhibitors, dose response, biochemical, fluorescence (AID 2403)
REPORTED METRIC: IC50 (µM)
API: value field is a number in µM; no unit string.

What the record says about COc1ccc(CN=Nc2cc(C)nc(-n3nc(C)cc3C)n2)c(OC)c1 [MLS000589396] : IC50 is 6.68

What the record says about CC1(C)Cc2c(nn(-c3ccccc3)c(=N)c2C#N)CO1 : IC50 is 55.8

What the record says about COc1ccc(CN=Nc2cc(C)nc(-n3nc(C)cc3C)n2)cc1 [SMR000212741] : IC50 is 5.81

What the record says about CCOC(=O)c1sc(N2C(=O)C(=O)C(C(=O)c3ccco3)C2c2cccc([N+](=O)[O-])c2)nc1C (centres undefined) [MLS001082998] : IC50 is 11.8
